This collection of values is drawn from ChEMBL document CHEMBL5518214.

# measurement.target: Nuclear hormone receptor isoform A (Strongyloides stercoralis)
# Sequence (A0A0K0EQJ4 whole entry, the tested form may be a part, canonical isoform): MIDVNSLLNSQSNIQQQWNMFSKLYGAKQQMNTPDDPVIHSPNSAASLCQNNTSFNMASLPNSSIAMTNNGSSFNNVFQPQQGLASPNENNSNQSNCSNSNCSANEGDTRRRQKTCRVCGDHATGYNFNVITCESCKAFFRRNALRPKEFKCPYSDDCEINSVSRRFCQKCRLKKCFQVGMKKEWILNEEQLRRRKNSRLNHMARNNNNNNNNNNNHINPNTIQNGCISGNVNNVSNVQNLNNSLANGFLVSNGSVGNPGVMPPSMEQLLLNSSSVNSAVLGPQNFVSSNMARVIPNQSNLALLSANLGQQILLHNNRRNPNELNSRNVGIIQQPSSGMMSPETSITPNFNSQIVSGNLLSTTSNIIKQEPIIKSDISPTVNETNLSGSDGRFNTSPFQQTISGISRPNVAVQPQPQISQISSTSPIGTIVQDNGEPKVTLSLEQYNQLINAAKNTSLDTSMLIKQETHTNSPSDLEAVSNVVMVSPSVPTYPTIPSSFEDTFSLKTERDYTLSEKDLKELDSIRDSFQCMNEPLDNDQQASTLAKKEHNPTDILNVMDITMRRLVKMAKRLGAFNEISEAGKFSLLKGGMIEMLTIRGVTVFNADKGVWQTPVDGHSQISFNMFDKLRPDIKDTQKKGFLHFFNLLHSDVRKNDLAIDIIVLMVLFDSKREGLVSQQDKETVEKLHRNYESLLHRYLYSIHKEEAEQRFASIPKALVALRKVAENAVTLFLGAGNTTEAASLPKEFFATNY
# run.description: Agonist activity at GST-tagged Strongyloides stercoralis DAF-12 LBD incubated for 0.5 hrs in presence of biotinylated SRC1 and SRC2 by Alphascreen assay
parameter.measured: EC50 (µM)

Answered cases to consult:
compound	EC50 (µM)
C[C@H](CCC[C@H](C)C(=O)O)[C@H]1CC[C@H]2C3=CC[C@H]4CC(=O)CC[C@]4(C)C3CC[C@]12C (stereo not given in full)	0.08
C[C@H](CCC[C@H](C)C(=O)NS(=O)(=O)N(C)C)[C@H]1CC[C@H]2C3=CC[C@H]4CC(=O)CC[C@]4(C)C3CC[C@]12C (stereo not given in full)	0.65

a = Cc1ccc(S(=O)(=O)NC(=O)[C@@H](C)CCC[C@@H](C)[C@H]2CC[C@H]3C4=CC[C@H]5CC(=O)CC[C@]5(C)C4CC[C@]23C)cc1 (stereo not given in full)
b = C[C@H](CCC[C@H](C)C(=O)NS(C)(=O)=O)[C@H]1CC[C@H]2C3=CC[C@H]4CC(=O)CC[C@]4(C)C3CC[C@]12C (stereo not given in full)
Prompt: Please compare: a and b . Report which one has the smaller EC50 value. Answer = label.
Completion: b
